- Tested on: SEM cells
- Test: cell viability relative to DMSO control; higher = less cytotoxic
- Recorded conditions: RPMI 5 mM glucose + 10% FBS; 48 h; 1.71 µM
Quick reference for cell viability among some compounds

{"columns": ["Structure as smiles", "Tested system", "Units label", "cell viability"],
 "data": [
  ["C[C@@]12C(=O)OC(=O)[C@@]1(C)C1CCC2O1", "SEM cells", "%", 104],
  ["CN(C)[S+](=O)([O-])c1ccc2c(c1)C(=Cc1cc3c([nH]1)CCCC3)C(=O)N2", "SEM cells", "%", 113],
  ["CN[C@@H]1[C@@H](O)[C@@H](O[C@@H]2[C@@H](O)[C@H](O[C@H]3O[C@H](CN)[C@@H](O)[C@H](O)[C@H]3O)[C@@H](N)C[C@H]2NC(=O)[C@@H](O)CN)OC[C@]1(C)O", "SEM cells", "%", 111],
  ["C/C=C/C/C=C/CCC(=O)[C@H]1O[C@H]1C(N)=O", "SEM cells", "%", 111]
]}

* * *

- Tested on: NOMO1
- Test: cell viability relative to DMSO control; higher = less cytotoxic
- Recorded conditions: HPLM + 10% dialyzed FBS; 48 h; 5.12 µM

{"columns": ["Compound", "cell viability, %"],
 "data": [
  ["CC[C@H](/C=C/[C@@H](C)[C@H]1CC[C@H]2[C@@H]3CC=C4C[C@@H](O)CC[C@]4(C)[C@H]3CC[C@]12C)C(C)C", 80.6],
  ["COc1ccc(-c2ccc3ncc4c(c3c2)n(-c2ccc(N3CCNCC3)c(C(F)(F)F)c2)c(=O)n4C)cn1", 4.81],
  ["O=C(O)C1(Cc2cccc(Nc3nccs3)n2)CCC(Oc2cccc(Cl)c2F)CC1 (stereo unspecified)", 45.3],
  ["CN(C)C1CCN(C(=O)c2ccc(NC(=O)Nc3nc(N4CCOCC4)nc(N4CCOCC4)n3)cc2)CC1", 40.5],
  ["CNC(=O)c1ccc(N2C(=S)N(c3cnc(C#N)c(C(F)(F)F)c3)C(=O)C23CCC3)cc1F", 69.7],
  ["OC(c1cc(C(F)(F)F)nc2c(C(F)(F)F)cccc12)C1CCCCN1 (stereo unspecified)", 143],
  ["C[C@](Cc1c[nH]c2ccccc12)(NC(=O)OC1C2CC3CC(C2)CC1C3)C(=O)NC[C@H](NC(=O)CCC(=O)O)c1ccccc1 (stereo partly specified)", 157],
  ["CCOC(=O)[C@@H](N)Cc1ccc(-c2cc(O[C@H](c3ccc(Cl)cc3-n3ccc(C)n3)C(F)(F)F)nc(N)n2)cc1.O=C(O)CNC(=O)c1ccccc1", 94.2],
  ["CN[C@@H](C)[C@H]1[C@H](O)C[C@@]2(C)[C@@H]3CC[C@H]4C(C)(C)[C@@H](NC)CC[C@@]45C[C@@]35CC[C@]12C", 82.6],
  ["CC(C)c1ccc2c(c1)c(SC(C)(C)C)c(CC(C)(C)C(=O)[O-])n2Cc1ccc(Cl)cc1", 82],
  ["C[C@]12CCC(=O)C=C1CC[C@@H]1[C@@H]2[C@@H](O)C[C@@]2(C)[C@H]1CC[C@]2(O)C(=O)CO", 102],
  ["C[C@](O)(CS(=O)(=O)c1ccc(F)cc1)C(=O)Nc1ccc(C#N)c(C(F)(F)F)c1", 115],
  ["C[S+](=O)([O-])Nc1ccc([N+](=O)[O-])cc1Oc1ccccc1", 103],
  ["OC[C@H]1O[C@H]([C@H](O)[C@@H]1O)N2\\C=C/C(=O)NC2=O", 118],
  ["Clc1ccc(-c2nc3sccn3c2/C=N/OCc2ccc(Cl)c(Cl)c2)cc1", 99.6],
  ["CC1=C(C)C(=O)C(C(CCCCCC(=O)O)c2ccccc2)=C(C)C1=O (stereo unspecified)", 27.8]
]}
